Biological target: hmGlu5 (Homo sapiens, UniProt P41594)
Construct: expressed in transfected cells; host or cells: HEK 293A
Sequence (P41594 21-1212): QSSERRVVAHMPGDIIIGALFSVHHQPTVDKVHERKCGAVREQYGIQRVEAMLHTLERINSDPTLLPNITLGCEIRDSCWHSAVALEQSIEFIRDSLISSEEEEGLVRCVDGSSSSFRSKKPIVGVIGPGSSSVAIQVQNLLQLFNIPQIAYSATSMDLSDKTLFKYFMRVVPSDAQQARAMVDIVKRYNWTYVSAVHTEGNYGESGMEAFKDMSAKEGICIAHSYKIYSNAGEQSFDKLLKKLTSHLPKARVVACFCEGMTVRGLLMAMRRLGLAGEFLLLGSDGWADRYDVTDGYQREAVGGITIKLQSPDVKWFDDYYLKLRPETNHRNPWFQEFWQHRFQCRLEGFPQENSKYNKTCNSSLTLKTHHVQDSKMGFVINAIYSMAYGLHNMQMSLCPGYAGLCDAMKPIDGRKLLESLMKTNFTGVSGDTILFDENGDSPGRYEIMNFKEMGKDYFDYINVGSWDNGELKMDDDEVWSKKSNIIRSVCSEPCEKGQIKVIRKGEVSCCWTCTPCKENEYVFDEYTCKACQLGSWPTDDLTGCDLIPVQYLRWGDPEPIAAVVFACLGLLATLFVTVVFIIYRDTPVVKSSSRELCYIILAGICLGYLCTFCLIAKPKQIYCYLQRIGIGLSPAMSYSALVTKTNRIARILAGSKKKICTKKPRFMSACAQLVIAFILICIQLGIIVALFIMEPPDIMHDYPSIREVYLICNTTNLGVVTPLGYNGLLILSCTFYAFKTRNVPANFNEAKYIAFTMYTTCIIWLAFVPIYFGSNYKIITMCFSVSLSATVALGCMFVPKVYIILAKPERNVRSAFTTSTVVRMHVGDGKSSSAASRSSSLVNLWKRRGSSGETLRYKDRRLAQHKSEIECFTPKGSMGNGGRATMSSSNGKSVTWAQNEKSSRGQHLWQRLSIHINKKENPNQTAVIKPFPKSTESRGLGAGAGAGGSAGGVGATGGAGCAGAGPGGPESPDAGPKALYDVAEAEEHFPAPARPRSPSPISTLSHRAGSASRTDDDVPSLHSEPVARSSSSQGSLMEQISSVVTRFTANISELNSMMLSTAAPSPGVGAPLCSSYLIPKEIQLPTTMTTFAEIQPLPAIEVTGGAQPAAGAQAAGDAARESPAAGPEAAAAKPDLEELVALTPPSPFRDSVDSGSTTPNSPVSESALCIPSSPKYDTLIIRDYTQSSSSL
Experiment: mGlu5 Ca2+ flux assay in HEK 293A cells (negative allosteric modulation of glutamate EC80 response)
Type: cell-based
Conditions: HEK 293A cells, Ca2+ flux, glutamate EC80; >10,000 = decrease without plateau; read-out: hmGlu5 NAM IC50
Procedure: HEK 293A cells stably expressing either rat or human mGlu5 were plated in black-walled, clear-bottomed, poly-D-lysine coated 384-well plates in 20 μL of assay medium (DMEM containing 10% dialyzed FBS, 20 mM HEPES, 100 units/mL penicillin/streptomycin plus 250 ng/mL Fungizone, and 1 mM sodium pyruvate) at a density of 20K cells/well. The cells were grown overnight at 37° C. in the presence of 5% CO2. […] Ca^2+ flux was measured using the Functional Drug Screening System (FDSS7000, Hamamatsu, Japan). […]
METRIC NAME: IC50

Example results:
COMPOUND | RESULT
Cc1ccncc1-c1cc(-c2noc(C(C)c3ccccc3)n2)nc(C)c1F (stereo not drawn) | > 10 µM
Cc1nc(-c2noc(C3CCCCC3)n2)cc(-c2cncc(F)c2)c1F | > 10 µM

Consider the record given below.
Input: Quick check: IC50 of Cc1ccn(Cc2nc(-c3cc(-c4cnccc4C)c(F)c(C)n3)no2)n1 ?
Output: > 10 µM

* * *

Biological target: hmGlu5 (Homo sapiens)
Construct: expressed in transfected cells; host or cells: HEK 293A
Assay: mGlu5 Ca2+ flux assay in HEK 293A cells (negative allosteric modulation of glutamate EC80 response)
Assay type: cell-based
Settings: HEK293-A; % Glu max at 30 μM; read-out: hmGlu5 NAM Emin (%)
METRIC NAME: remaining activity at 30 µM (%)

// below: answered molecules
MOLECULE | remaining activity at 30 µM (%)
Cc1ccncc1-c1cc(-c2noc(-c3cccc(C#N)c3)n2)nc(C)c1F [Compound 24] | 2
Cc1nc(-c2n[nH]c(-c3ccc(F)cc3)n2)cc(-c2cncc(F)c2)c1F [Compound 99] | 2
Cc1ccncc1-c1cc(-c2noc(-c3ccncc3)n2)nc(C)c1F [Compound 93] | 2
Cc1ccncc1-c1cc(-c2noc(-c3cscn3)n2)nc(C)c1F [Compound 27] | 2

I. COc1c(-c2cncc(F)c2)cc(-c2n[nH]c(-c3ccccc3F)n2)nc1C [Compound 100]
II. Fc1ccc(-c2nc(-c3cc(-c4cncc(F)c4)cc(C(F)F)n3)no2)nc1 [Compound 61]
Input: Hi there, can you help? I need to know whether I or II has lower measured remaining activity at 30 µM. Response format: the label of the selected entry.
Output: I
(I: 2%, II: 6%)
